tested on: HL-1; experiment: relative cell viability (CellTiter-Glo) vs DMSO control (% of DMSO control); higher = more viable cells; conditions: oxygen condition: hypoxia 48 h (1% O2) + reoxygenation 24 h; 200 nM
relative cell viability values for the molecules below.
Answer using only a numeral; do not append any unit.

>>> readout_value("O=C1NC(=O)C(c2ccccc2)(c2ccccc2)N1")
97.9

# ---- query molecule ----
Request: Please give the documented relative cell viability of O=c1oc2c(O)c(O)cc3c(=O)oc4c(O)c(O)cc1c4c23
Result: 104

###

test system: HL-1; assay: relative cell viability (CellTiter-Glo) vs DMSO control (% of DMSO control); higher = more viable cells; conditions: oxygen condition: hypoxia 48 h (1% O2) + reoxygenation 24 h; 200 nM
Structures can show the parent of a compound that is named as a salt.
Known relative cell viability of a selection of compounds
Returns: the value as a bare number; no unit string appended.

Reference set, count: 5
>>> readout_value("Cc1ncc(CO)c(CO)c1O [Pyridoxine hydrochloride]")
101
>>> readout_value("CO[C@H]1C[C@@H]2CC[C@@H](C)[C@@](O)(O2)C(=O)C(=O)N2CCCC[C@H]2C(=O)O[C@H]([C@H](C)C[C@@H]2CC[C@@H](OCCO)[C@H](OC)C2)CC(=O)[C@H](C)/C=C(\\C)[C@@H](O)[C@@H](OC)C(=O)[C@H](C)C[C@H](C)/C=C/C=C/C=C/1C")
75
>>> readout_value("Cc1cc(C)nc(NS(=O)(=O)c2ccc(N)cc2)n1")
104
>>> readout_value("N=C(N)N/N=C/c1c(Cl)cccc1Cl [Guanabenz acetate]")
113
>>> readout_value("C[C@]12CC[C@H](O)CC1=CC[C@@H]1[C@@H]2CC[C@]2(C)C(c3cccnc3)=CC[C@@H]12")
72.2

Request: Look up HL-1 data: relative cell viability of COCCCOc1cc(C[C@@H](C[C@H](N)[C@@H](O)C[C@H](C(=O)NCC(C)(C)C(N)=O)C(C)C)C(C)C)ccc1OC [Aliskiren hemifumarate] , then report it.
Result: 97.2

Request: Look up and report relative cell viability, with HL-1 as system, for Oc1cc(O)c(Cl)cn1
Result: 101

Request: Supply relative cell viability measured with HL-1 for OCCN(CCO)c1nc(N2CCCCC2)c2nc(N(CCO)CCO)nc(N3CCCCC3)c2n1 .
Result: 107

Request: Supply relative cell viability measured with HL-1 for NS(=O)(=O)c1cc2c(cc1Cl)N=CNS2(=O)=O [Chlorothiazide] .
Result: 112
